Could you please report measured Ki for the items listed next?
# test target: hKOR (Homo sapiens, UniProt P41145)
# Sequence (P41145 whole entry): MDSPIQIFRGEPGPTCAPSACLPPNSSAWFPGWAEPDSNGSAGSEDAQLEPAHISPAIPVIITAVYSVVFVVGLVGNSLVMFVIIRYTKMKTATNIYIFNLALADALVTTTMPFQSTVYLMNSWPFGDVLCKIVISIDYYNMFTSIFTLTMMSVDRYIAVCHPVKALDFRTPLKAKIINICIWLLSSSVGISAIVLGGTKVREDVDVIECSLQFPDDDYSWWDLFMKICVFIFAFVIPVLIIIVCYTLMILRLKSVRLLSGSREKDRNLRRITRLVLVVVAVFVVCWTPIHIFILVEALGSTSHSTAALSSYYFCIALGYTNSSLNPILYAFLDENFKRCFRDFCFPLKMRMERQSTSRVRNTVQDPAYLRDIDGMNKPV
# test details: Receptor binding with [3H]diprenorphine at hKOR
# settings: PZM analogs; (n) = number of independent experiments; read-out: binding affinity Ki hKOR
Reply with just the number (in nM).

For the molecule O=C(NCCc1ccccc1)NC[C@H](Cc1ccc(O)cc1)N1CCCC1 , what Ki is on record?
770

Reported Ki, molecule CN(C)[C@@H](CNC(=O)NCCc1ccsc1)Cc1ccc(O)cc1 : ____
5200

Using the record for COc1ccccc1CCNC(=O)NCC(Cc1ccc(O)cc1)N(C)C (stereo not drawn) , report its Ki.
140

Look up Ki for this molecule: C[C@@H](Cc1ccsc1)NC(=O)NC[C@H](Cc1ccccc1)N(C)C [drawing 492]
1000

Given the entry CN(C)[C@@H](CNC(=O)NC(C)(C)Cc1ccsc1)Cc1ccc(O)cc1 , report its measured Ki.
1300

Would you kindly share the measured Ki for CN(C)[C@H](CNC(=O)NCCCN1C(=O)C=CC1=O)Cc1ccc(O)cc1 ?
450

Look up Ki: CN(C)[C@@H](CNC(=O)NC(C)(C)Cc1ccccc1)Cc1ccc(O)cc1
1500

Request the reported Ki associated with CN(C)[C@H](CNC(=O)NC1Cc2ccccc2C1)Cc1ccc(O)cc1 [drawing 526]
51

I have this molecule here, C[C@@H](CN1C(=O)C=CC1=O)NC(=O)NC[C@H](Cc1ccc(O)cc1)N(C)C , and I need its recorded Ki.
1200

What does the data say about its Ki? Entry: C[C@@H](Cc1ccccc1)NC(=O)NC[C@H](Cc1ccc(O)cc1)N(C)C [drawing 517]
37

Recorded Ki of C[C@H](Cc1ccsc1)NC(=O)NC[C@@H](Cc1ccc(O)cc1)N(C)C , please.
3100

What does the data say about its Ki? Entry: CN(C)C(CNC(=O)NCCc1ccccc1F)Cc1ccc(O)cc1 (stereo not drawn)
440

====

# test target: hKOR (Homo sapiens)
# test details: Receptor binding with [3H]diprenorphine at hKOR
# settings: PZM analogs; (n) = number of independent experiments; read-out: binding affinity Ki hKOR
pKi: −log10 of the molar value.
Category key, based on recorded pKi: low (below 6), intermediate (6 to below 7), high (7 or more)

Consider C[C@H](NC(=O)NC[C@H](Cc1ccc(O)cc1)N(C)C)c1ccccc1 (single isomer, unassigned) . To which pKi class does it belong?
high

Input CN(C[C@H](Cc1ccc(O)cc1)N(C)C)C(=O)NCCc1ccccc1 [drawing 503] ; output its category
intermediate

Lab note: which band did CC(Cc1csc2ccccc12)NC(=O)NC[C@H](Cc1ccc(O)cc1)N(C)C (mixture of isomers) land in?
high

Categorize the following entry: C[C@@H](Cc1ccsc1)NC(=O)NC[C@H](Cc1ccc(O)nc1)N(C)C
low

Which bin, given its pKi, does Cc1cc(O)cc(C)c1C[C@@H](CNC(=O)NCCN1C(=O)C=CC1=O)N(C)C occupy?
intermediate

For C[C@@H](Cc1ccsc1)NC(=O)NC[C@H](Cc1ccc(O)cc1)N(C)C [drawing 512] , which pKi bin applies?
high

Which category does the recorded pKi put C[C@@H](Cc1ccsc1)NC(=O)NC[C@@H](Cc1ccc(O)cc1)N(C)C in?
low

Each compound maps to one class by pKi. Which class for C[C@@H](Cc1ccsc1)NC(=O)NCC(Cc1ccc(O)cc1)N(C)Cc1ccccc1 (some centres unmarked) ?
intermediate

Band for CN(C)[C@H](CNC(=O)OCCc1ccsc1)Cc1ccc(O)cc1 ?
intermediate

Which class does CN(C)[C@@H](CNC(=O)NCCc1ccsc1)Cc1ccccc1 fall in?
low

====

# test target: humanDOR (Homo sapiens, UniProt P41143)
# Sequence (P41143 whole entry): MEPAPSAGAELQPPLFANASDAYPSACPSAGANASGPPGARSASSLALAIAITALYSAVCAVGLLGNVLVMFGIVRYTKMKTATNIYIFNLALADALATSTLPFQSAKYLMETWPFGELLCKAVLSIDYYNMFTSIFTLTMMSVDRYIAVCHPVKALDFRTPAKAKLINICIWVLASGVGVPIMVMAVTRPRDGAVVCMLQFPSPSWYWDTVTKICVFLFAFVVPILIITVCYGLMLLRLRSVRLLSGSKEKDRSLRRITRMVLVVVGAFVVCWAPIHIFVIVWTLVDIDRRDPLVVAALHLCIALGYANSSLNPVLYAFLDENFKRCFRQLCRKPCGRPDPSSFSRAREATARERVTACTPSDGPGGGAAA
# test details: Receptor binding with [3H]diprenorphine at human DOR
# settings: PZM analogs; (n) = number of independent experiments; read-out: binding affinity Ki hDOR
measure: Ki

GET /values?readout=Ki&system=humanDOR (Homo sapiens, UniProt P41143)&item= C[C@@H](Cc1ccsc1)NC(=O)NC[C@H](Cc1ccc(O)cc1)N(C)C [drawing 512]
1 µM

Given the entry C[C@@H](Cc1ccsc1)NC(=O)NC[C@H](Cc1ccc(O)c(CO)c1)N(C)C [drawing 535] , what Ki was observed with humanDOR (Homo sapiens, UniProt P41143)?
1.5 µM

Write down the reported Ki of C=CCN(C[C@H](Cc1ccccc1)N(C)C)C(=O)N[C@@H](C)Cc1ccsc1 , test system: humanDOR (Homo sapiens, UniProt P41143).
~15 µM

====

# test target: humanDOR (Homo sapiens, UniProt P41143)
# test details: Receptor binding with [3H]diprenorphine at human DOR
# settings: PZM analogs; (n) = number of independent experiments; read-out: binding affinity Ki hDOR
pKi: −log10 of the molar value.
# cutoff 6 applies to pKi; >= gives condition met, < gives condition not met

Could you tell me if the measured pKi of C[C@@H](Cc1ccsc1)NC(=O)NC[C@H](Cc1ccc(O)nc1)N(C)C reaches 6 or more?
condition not met

Check if pKi >= 6 (inclusive). Item: CN(C)[C@H](CNC(=O)NCCc1ccccc1)Cc1ccc(O)cc1 [drawing 514]
condition met

Please indicate if the recorded pKi for CN(C)C(CNC(=O)NCCc1ccc(F)cc1)Cc1ccc(O)cc1 (centres unmarked) meets or exceeds 6.
condition met

State whether the measured pKi reaches 6, counting equality as reaching it, for COc1ccc(CCNC(=O)NCC(Cc2ccc(O)cc2)N(C)C)cc1 (centres unmarked)
condition not met

Could you please find out whether CN(C)[C@H](CNC(=O)NCCc1cn(CCSSCCN=[N+]=[N-])nn1)Cc1ccc(O)cc1 [drawing 545] has pKi that meets 6 or exceeds it?
condition not met

Form field: pKi at least 6? Entry: Cc1cc(O)cc(C)c1C[C@@H](CNC(=O)NCCN1C(=O)C=CC1=O)N(C)C
condition met

Reported pKi reaches at least 6 for CN(C)[C@@H](CNC(=O)NC(C)(C)Cc1ccsc1)Cc1ccccc1 ?
condition not met

State whether the measured pKi reaches 6, counting equality as reaching it, for C[C@H](CN1C(=O)C=CC1=O)NC(=O)NC[C@H](Cc1ccc(O)cc1)N(C)C
condition met

Tell me whether pKi is at least 6 here: CN(C)[C@H](CNC(=O)NCCc1ccsc1)Cc1ccc(O)cc1 [drawing 500]
condition met

I'd appreciate it if you could say whether C[C@@H](Cc1ccccc1)NC(=O)NC[C@H](Cc1ccc(O)cc1)N(C)C [drawing 517] has pKi at least equal to 6.
condition met

Form field: pKi at least 6? Entry: CN(C)[C@H](CNC(=O)NC(C)(C)Cc1ccsc1)Cc1ccc(O)cc1 [drawing 528]
condition met

For this compound, is measured pKi 6 or higher? CN(C)[C@@H](CNC(=O)NC(C)(C)Cc1ccccc1)Cc1ccc(O)cc1
condition not met

For this compound, is measured pKi 6 or higher? C[C@@H](Cc1ccsc1)NC(=O)NC[C@H](Cc1ccnc(O)c1)N(C)C
condition not met

Could you please find out whether CN(C)[C@H](CNC(=O)NCCc1cn(Cc2ccccc2)nn1)Cc1ccc(O)cc1 has pKi that meets 6 or exceeds it?
condition met

Does pKi meet or surpass 6 for CN(C)[C@@H](CNC(=O)NC(C)(C)Cc1ccsc1)Cc1ccc(O)cc1 ?
condition not met

Is pKi for C[C@H](NC(=O)NC[C@H](Cc1ccc(O)cc1)N(C)C)c1cccc2ccccc12 [drawing 524] at or above 6?
condition met

Determine whether measured pKi meets or exceeds 6 for CN(C)[C@H](CNC(=O)NC(C)(C)Cc1ccsc1)Cc1ccccc1
condition not met

Determine whether this compound has pKi no lower than 6: CN(C)[C@H](CNC(=O)CCCc1ccccc1)Cc1ccc(O)cc1
condition met

Evaluate CN(CCc1ccccc1)C(=O)N(C)C[C@H](Cc1ccc(O)cc1)N(C)C [drawing 505] : pKi at minimum 6?
condition not met

Quick check: does CN(C[C@H](Cc1ccc(O)cc1)N(C)C)C(=O)NCCc1ccccc1 [drawing 503] have pKi greater than or equal to 6?
condition not met

Has Cc1cc(O)cc(C)c1C[C@@H](CNC(=O)NCCc1ccsc1)N(C)C a recorded pKi greater than or equal to 6?
condition met

Does CN(C)[C@H](CNC(=O)NCCCN1C(=O)C=CC1=O)Cc1ccc(O)cc1 have a reported pKi of at least 6?
condition not met

pKi >= 6 for CC(C)N(C[C@H](Cc1ccc(O)cc1)N(C)C)C(=O)N[C@@H](C)c1cccc2ccccc12 ?
condition met

State whether the measured pKi reaches 6, counting equality as reaching it, for C[C@H](Cc1ccccc1)NC(=O)NC[C@H](Cc1ccc(O)cc1)N(C)C [drawing 516]
condition met

Is reported pKi greater than or equal to 6 here: CN(C)[C@H](CNC(=O)NC(C)(C)Cc1ccsc1)Cc1cccc(O)c1 [drawing 532]
condition met

pKi >= 6 for CN(C)C(CNC(=O)NCCc1cccc(F)c1)Cc1ccc(O)cc1 (centres unmarked) ?
condition met

In plain terms: is recorded pKi at least 6 for C[C@@H](Cc1ccsc1)NC(=O)NC[C@@H](Cc1ccccc1)N(C)C ?
condition not met

Check if pKi >= 6 (inclusive). Item: CN(C)C(CNC(=O)NCCc1ccccc1F)Cc1ccc(O)cc1 (centres unmarked)
condition met

Reference source: patent US20200109126A1
